This collection of values is drawn from patent US20220259593A1.

# System: K562 CRISPRi cells
# test.details: Constant region variant library pooled growth screen, K562
# Format: cell-based, human
# stated.conditions: sgRNA constant region variants; activity relative to the original, un-modified constant region cr995
Consider the cut-off 0.04. If the recorded Mean relative activity is strictly smaller, the label is MET; if not, the label is NOT MET.

Some solved entries appear below for comparison.
molecule	group.label
cr975 (nucleic acid, listed as DNA, chemistry not fully specified) guide: GTTTAAGAGCTAAGCTGGAAACAGCATAGCAACTTTAAATATGGCTAGTCCGTTATCAACTTGAAAAAGTGGCACCGAGTCGGTGCT	MET
cr739 (nucleic acid, listed as DNA, chemistry not fully specified) guide: GTTTAAGAGCTAAGCTGGAAACAGCATAGCAACTTTAAATAAGGCTAGTCCGTTATCAACGTGAAAACGTGGCACCGAGTCGGTGCT	NOT MET
cr695 (nucleic acid, listed as DNA, chemistry not fully specified) guide: GTTTAAGAGCTAAGCTGGAAACAGCATAGCAAGTTTAAATAAGGCTAGTCCGATGTCAACTTGTAAAAGTGGCACCGAGTCGGTGCT	NOT MET
cr692 (nucleic acid, listed as DNA, chemistry not fully specified) guide: GTTTAAGAGCTAAGCTAGAAACAGCATAGCAAGTTTAAATAAGGCTAGTCCGTTATCAACTTGAAAAAGTGGCACCGAGTCGGTGCT	NOT MET
cr625 (nucleic acid, listed as DNA, chemistry not fully specified) guide: GTTTAAGAGCTAAGCTGGAAACAGCATAGCAAGCTTAAATAAGGCTAGTCCGTTATCAACTTGAAAAAGTGGCACCTAGTAGGTGCT	NOT MET

Switching to the query record.
[in] Take the molecule cr819 (nucleic acid, listed as DNA, chemistry not fully specified) guide: GTTTAAGAGCTAAGCTGGAAACAGCATCGCAAGTTTAAATAAGGCTGGTCCGGTATCAACTTGAAAAAGTGGCACCGAGTCGGTGCT and say whether its Mean relative activity is less than 0.04.
[out] NOT MET
